The reported measurements were obtained from paper PMC8865918.

# target desc: σ1 receptor (Homo sapiens, UniProt Q99720)
# Sequence (Q99720 whole entry, species assumed): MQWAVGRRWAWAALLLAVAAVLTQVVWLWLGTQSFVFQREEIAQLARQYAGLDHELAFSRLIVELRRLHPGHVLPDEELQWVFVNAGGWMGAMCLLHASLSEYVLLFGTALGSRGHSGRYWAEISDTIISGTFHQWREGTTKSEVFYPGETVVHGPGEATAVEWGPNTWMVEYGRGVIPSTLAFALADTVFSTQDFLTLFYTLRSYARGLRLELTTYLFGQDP
parameter measured: Ki (nM)
Please respond with the number in nM and leave the unit unwritten.

Consider the compound shown here: Cn1c(=O)n([C@@H]2O[C@H](COP(=O)(O)CP(=O)(O)O)[C@@H](O)[C@H]2O)cc/c1=N/OCc1ccc(Cl)cc1 [Compound 16] What is its recorded Ki? 2610
